Origin of measurements: the NIST ThermoML archive (doi:10.1021/je030236t)

- testContext: 550 K; Liquid
Returns: string. Value is 1 if measured vapor or sublimation pressure is below 0.2 kPa, and 0 if it is greater than or equal to it.

{"compound": "CCCCCCCCCCCCCCCCCCCCCCCCCCCCCCCCCCCCCC [octatriacontane]", "assignedCategory": 1}
{"compound": "CCCCCCCCCCCCCCCCCCCCCCCCCCCCCCCCCCCC [hexatriacontane]", "assignedCategory": 1}
{"compound": "CCCCCCCCCCCCCCCCCCCCCCCCCCCCCCCCCC [tetratriacontane]", "assignedCategory": 0}
{"compound": "CCCCCCCCCCCCCCCCCCCCCCCCCCCCCCC [hentriacontane]", "assignedCategory": 0}
{"compound": "CCCCCCCCCCCCCCCCCCCCCCCCCCCCCCCCCCC [pentatriacontane]", "assignedCategory": 1}
{"compound": "CCCCCCCCCCCCCCCCCCCCCCCCCCCCCCCCCCCCC [heptatriacontane]", "assignedCategory": 1}
{"compound": "CCCCCCCCCCCCCCCCCCCCCCCCCCCCCCCC [dotriacontane]", "assignedCategory": 0}
{"compound": "CCCCCCCCCCCCCCCCCCCCCCCCCCCCCCCCC [tritriacontane]", "assignedCategory": 0}
